System: 3D7
experiment.notes: qHTS profiling for inhibitors of Plasmodium falciparum proliferation (AID 504749); note: nearly all actives have a fitted effect of over 60% in size
applied.conditions: P. falciparum in erythrocytes, SYBR Green DNA, 72 h; series mostly up to 28.7 µM
Method: NIH National Institute of Allergy and Infectious Diseases [NIAID] NIH Chemical Genomics Center [NCGC] […] Because mature erythrocytes lack DNA, only Plasmodium-derived DNA is detected. NCGC Assay Protocol Summary: The SYBR Green viability assay was adapted from a method described previously (Plouffe et al., 2008). […] The following morning, fluorescence intensity at 485(14) nm excitation and 535(25) nm emission wavelengths was measured on an EnVision (Perkin Elmer) plate reader. […]
Results filed as inconclusive are left out. Calls of active or inactive are those of the source. Calls come from the whole dose curve; as a rule, active = well fitted inhibition curve with a large enough effect; inconclusive = small, poorly fitted or top-dose-only effect; inactive = flat fitted curve, though single readings scatter.
Outcomes: active, inactive

>>> print(df.to_string())
                                    compound  assigned_category
 0  CN(C)CCOC(c1ccc(Cl)cc1)c1ccccn1 (centres undefined)           inactive
 1  O=C(c1ccc(F)cc1)C1CCN(CCn2c(=S)[nH]c3ccccc3c2=O)CC1             active
 2  Cc1ccc(-c2ncc(Cl)cc2-c2ccc(S(C)(=O)=O)cc2)cn1           inactive
 3           CC(C)Cn1cnc2c1c(=O)n(C)c(=O)n2C           inactive
 4             O=C(O)Cc1csc(-c2ccc(Cl)cc2)n1           inactive
 5  C=C[C@@]1(C)CC(=O)[C@]2(O)[C@@]3(C)[C@@H](O)CCC(C)(C)[C@@H]3[C@H](O)[C@H](OC(C)=O)[C@@]2(C)O1           inactive
 6                      NC(=S)N/N=C/c1cccnc1           inactive
 7  CCc1ccc(C(=O)C(C)CN2CCCCC2)cc1 (centres undefined)           inactive
 8   CCc1oc2ccccc2c1C(=O)c1cc(Br)c(O)c(Br)c1           inactive
 9  COc1ccc(-c2cc(C(F)F)nn2-c2ccc(S(N)(=O)=O)cc2)cc1F           inactive
10            Cn1c(=O)c2[nH]c(Br)nc2n(C)c1=O           inactive
11                         CCCCN=C(N)N=C(N)N           inactive
12                     CCCCCCCCCCCCCCCC(=O)O           inactive
13  CN1CCN(c2c(F)cc3c(=O)c(C(=O)O)cn4c3c2SCC4)CC1           inactive
14           CN1CCC(OC(c2ccccc2)c2ccccc2)CC1           inactive
15  O=C(Nc1cccc(C2=NCCN2)c1)Nc1cccc(C2=NCCN2)c1             active
16  CC1=C(C(=O)O)N2C(=O)[C@@H](NC(=O)[C@H](N)c3ccccc3)[C@H]2SC1           inactive
17  NC(=O)C1(N2CCCCC2)CCN(CCCC(=O)c2ccc(F)cc2)CC1           inactive
18                                OCc1ccccn1           inactive
19  C[N+]1(CC2COC(c3ccccc3)(C3CCCCC3)O2)CCCCC1 (centres undefined)             active
20                      N=C(N)N1CCc2ccccc2C1           inactive
21      CCCN(CCc1cccs1)[C@H]1CCc2c(O)cccc2C1             active
22  CCOc1ccccc1OCCN[C@H](C)Cc1ccc(OC)c(S(N)(=O)=O)c1           inactive
23     CCCCCN=C(N)N/N=C/c1c[nH]c2ccc(OC)cc12             active
